Just for reference, paper PMC7858594 is where these values come from.

Measured Kd values are reported for all entries that follow.
# Tgt: T1, FGF5 (human, UniProt P12034 21-268)
# T1 sequence: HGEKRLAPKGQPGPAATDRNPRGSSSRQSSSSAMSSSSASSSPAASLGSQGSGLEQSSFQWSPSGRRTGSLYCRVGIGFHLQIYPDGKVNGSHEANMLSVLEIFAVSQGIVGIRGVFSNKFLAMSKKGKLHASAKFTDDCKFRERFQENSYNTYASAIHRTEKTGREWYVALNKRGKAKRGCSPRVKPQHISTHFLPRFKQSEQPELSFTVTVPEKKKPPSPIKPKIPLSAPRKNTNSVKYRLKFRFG
# Method: SPR; 4 eq low-MW heparin; SPR (BIAcore X): 20 mM Tris-HCl pH 7.4, 200 mM NaCl, 5 mM MgCl2, 5 mM CaCl2, 0.05% Tween20, 4 eq low-MW heparin; temperature not stated
# Measurement Parameters: protein: commercial; label: none; multi-branched loop (predicted)
Please give a number only; it is taken to be in nM.

F5f1 (structured_RNA, 2'-fluoro pyrimidines (all C and U)) RNA: GGGCUAGCUGAUCGUACCUCUCCGUACUGACCUACAGAGCGACAUACUAGUGUAUCCAGAUACUAACAGCUAACACCC    0.7

Measured Kd of F5f1_56 (structured_RNA, 2'-fluoro pyrimidines (all C and U)) RNA: GGGCGACCUCUCCGUACUGACCUACAGAGCGACAUACUAGUGUAUCCAGAUCGCCC : 0.118

The binder identified as F5f3 (structured_RNA, 2'-fluoro pyrimidines (all C and U)) RNA: GGGCUAGCUGAUCGUACCUAGCGUGAAUCCAACACGCUUGACAUGCAAACUGCAUCCAGAUACUAACAGCUAACACCC registered its Kd at 0.57

Quick note, Kd for F5f3_56 (structured_RNA, 2'-fluoro pyrimidines (all C and U)) RNA: GGGCGACCUAGCGUGAAUCCAACACGCUUGACAUACAAACUGCAUCCAGAUCGCCC landed at 0.92
